# TARGET_OR_TEST_SYSTEM: T1, recombinant human TROP2 extracellular domain (aa 1-274) comprising His tag (human, UniProt P09758 27-274)
# T1 construct: Used here for all assays on recombinant human TROP2 (ELISA, immunoblot, SPR, crystal), although only some of them name the catalogue number; also called human recombinant TROP2; recombinant human TROP2 protein; not shown: His tag
# T1 sequence: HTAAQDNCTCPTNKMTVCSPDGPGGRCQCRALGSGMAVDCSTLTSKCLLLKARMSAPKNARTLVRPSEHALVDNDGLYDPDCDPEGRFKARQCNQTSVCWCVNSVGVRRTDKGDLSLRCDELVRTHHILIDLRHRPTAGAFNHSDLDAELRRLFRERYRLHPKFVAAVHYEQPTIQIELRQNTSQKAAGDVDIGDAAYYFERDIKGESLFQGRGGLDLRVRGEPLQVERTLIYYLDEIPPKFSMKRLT
# ASSAY_NOTES: ELISA, coated rh TROP2, normalized to KD005
Entries and their measured EC50 relative to KD005 follow.

[
  {
    "BINDER": "KD045 (antibody, V domains shown, KD005 humanized variant) VH: EVQLLESGGGLVQPGGSLRLSCAASGFTFSGSDMSWVRQAPGKGLEWVSYITSGGTTYYADTVKGRFTISRDNSKNTLYLQMNSLRAEDTAVYRCAKSRLTDSHYVEDAWGQGTLVTVSS",
    "EC50 relative to KD005": "1.01 ratio to KD005"
  },
  {
    "BINDER": "KD052 (antibody, V domains shown, KD005 humanized variant) VH: EVQLVESGGGLIQPGGSLRLSCAASGFTFSGSDMSWVRQAPGKGLEWVSVITSGGTTYYADTVKGRFTISRDNSKNTLYLQMNSLRAEDTAVYYCAKSRLTDSHYVEDAWGQGTLVTVSS",
    "EC50 relative to KD005": "0.93 ratio to KD005"
  }
]

Find the recorded EC50 relative to KD005 belonging to KD055 (antibody, V domains shown, KD005 humanized variant) VH: EVQLQESGGGLIQPGGSLRLSCAASGFTFSGSDMSWVRQAPGKGLEWVSYITSGGTTYYADTVKGRFTISRDNSKNTLYLQMNSLRAEDTAVYRCAKSRLTDSHYVEDAWGQGTLVTVSS and report it.
1.12 ratio to KD005
